Molecular target: E2o (Escherichia coli, UniProt P0AFG6, H376W)
Construct: full-length E2o alone, pCA24N plasmid, expressed in E. coli, PEG precipitation and size exclusion
Sequence (P0AFG6 2-405 H376W): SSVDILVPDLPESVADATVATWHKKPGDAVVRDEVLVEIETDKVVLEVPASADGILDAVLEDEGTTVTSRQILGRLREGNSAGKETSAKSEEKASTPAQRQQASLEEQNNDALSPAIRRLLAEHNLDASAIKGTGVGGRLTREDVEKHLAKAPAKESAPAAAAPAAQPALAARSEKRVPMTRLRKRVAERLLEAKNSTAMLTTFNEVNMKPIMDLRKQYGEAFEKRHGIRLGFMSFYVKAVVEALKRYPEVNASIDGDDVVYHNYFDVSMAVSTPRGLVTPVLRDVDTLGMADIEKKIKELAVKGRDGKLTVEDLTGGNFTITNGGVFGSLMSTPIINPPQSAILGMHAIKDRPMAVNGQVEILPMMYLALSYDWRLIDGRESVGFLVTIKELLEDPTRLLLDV
Assay: intrinsic Trp fluorescence quenching (ex […] nm)
pKd: −log10 of the molar value.
PROPERTY_NAME: pKd

>>> observed("CC(C)(COP(=O)(O)OP(=O)(O)OC[C@H]1O[C@@H](n2cnc3c(N)ncnc32)[C@H](O)[C@@H]1OP(=O)(O)O)[C@@H](O)C(=O)NCCC(=O)NCCSC(=O)CCC(=O)O")
4.33
>>> observed("CC(C)(COP(=O)(O)OP(=O)(O)OC[C@H]1O[C@@H](n2cnc3c(N)ncnc32)[C@H](O)[C@@H]1OP(=O)(O)O)[C@@H](O)C(=O)NCCC(=O)NCCS")
4.21

Each recorded value in this set is attributed to paper PMC5986005.
